Assay: basal HepG2 mitochondrial membrane potential changes, profiling panel, cell-based, JC-1 fluorescence, 24 h, 100 nL compound (AID 1167); note: test concentration not given here
Details: higher = more signal
# z-score listing for each entry below
measurement.name: z-score

compound=C[C@@H]1C=CCC(=O)OC[C@H]2O[C@@H](C=C[C@@H]2O)[C@H](C)C=CCC(=O)OC[C@H]2O[C@H]1C=C[C@@H]2O reading=0.885
compound=CCCNC(=O)[C@@H]1c2ccccc2C(=O)N(C2CCCCC2)[C@H]1c1ccc(CO)cc1 reading=2.29
compound=C=C(CCCC)/C(=C/C[C@@H](OC(=O)c1ccncc1)c1cccc(OCCO)c1)c1cc(C(=O)OC)ccc1OC reading=2.91
compound=CC(C)[Si](OCCCNS(=O)(=O)c1ccc(Br)cc1)(C(C)C)C(C)C reading=-3.5
compound=C=CC[C@@]12N=C(c3ccc(OCCCO)cc3)O[C@@H]1c1ccccc1CN(Cc1ccccc1)C2=O reading=0.0441
compound=O=C(O)[C@@H]1Cc2c([nH]c3ccccc23)[C@@H](c2ccccc2)N1 reading=0.516
compound="O=C1C2C=CC(C(O)Cc3ccccc3)N(Nc3ccc([N+](=O)[O-])cc3)C2C(=O)N1c1ccccc1 (configuration not stated)" reading=-1.36
compound=O=C(N1CCCCC1)[C@@]1(CCS(=O)(=O)c2ccccc2)N=C(c2ccc(OCCCO)cc2)O[C@H]1c1ccccc1 reading=2
compound=CO[C@H]1O[C@H](CO)[C@@H](OC(=O)Nc2ccc(Oc3ccccc3)cc2)[C@H](OC(=O)Nc2ccccc2-c2ccccc2)[C@H]1OC(=O)Nc1ccccc1-c1ccccc1 reading=-1.37
compound=COC(=O)[C@H]1[C@@H]2COc3ccccc3[C@H]2N[C@H]1C(=O)OC reading=0.321
compound=CO[C@H]1COC(=O)[C@@H](Cc2ccccc2)NC(=O)[C@@H](C)COC(=O)CC=C[C@@H]1C reading=0.606
compound=COC(=O)Cn1c(C(=O)N2CCCC2)cc2c1C[C@H]1CN(C(=O)c3ccccc3)[C@@](Cc3ccccc3)(C(=O)OC)[C@@H]21 reading=0.876
compound="COc1ccc(NN2C(C(O)c3cc(OC)c(OC)c(OC)c3)C=CC3C(=O)N(C4CCCCC4)C(=O)C32)cc1 (configuration not stated)" reading=0.861
compound=COc1ccc([Si](C)(C)[C@H]2[C@H](CCO)O[C@@]3(C(=O)N(Cc4ccc(N5CCCCC5=O)cc4)c4ccccc43)[C@@H]2C)cc1 reading=1.05
compound=CO[C@@H]1COC(=O)CC=C[C@@H](C)[C@H](OC)COC(=O)CC=C[C@H]1C reading=0.692
compound=C=CCN1C(=O)[C@@]2(Cc3ccccc3)N=C(c3ccc(OCCCO)cc3)O[C@H]2c2ccccc21 reading=-2.07
compound=COC(=O)C1=C(C)N(Cc2ccccc2)c2c(C(=O)OC)c(C(=O)OC)c(C(=O)OC)c(=O)n2[C@@H]1c1ccccc1 reading=1.12

====

# z-score listing for each entry below
Target: NADPH oxidase 2 (Homo sapiens) (UniProt P04839)
Sequence (P04839 whole entry, looked up): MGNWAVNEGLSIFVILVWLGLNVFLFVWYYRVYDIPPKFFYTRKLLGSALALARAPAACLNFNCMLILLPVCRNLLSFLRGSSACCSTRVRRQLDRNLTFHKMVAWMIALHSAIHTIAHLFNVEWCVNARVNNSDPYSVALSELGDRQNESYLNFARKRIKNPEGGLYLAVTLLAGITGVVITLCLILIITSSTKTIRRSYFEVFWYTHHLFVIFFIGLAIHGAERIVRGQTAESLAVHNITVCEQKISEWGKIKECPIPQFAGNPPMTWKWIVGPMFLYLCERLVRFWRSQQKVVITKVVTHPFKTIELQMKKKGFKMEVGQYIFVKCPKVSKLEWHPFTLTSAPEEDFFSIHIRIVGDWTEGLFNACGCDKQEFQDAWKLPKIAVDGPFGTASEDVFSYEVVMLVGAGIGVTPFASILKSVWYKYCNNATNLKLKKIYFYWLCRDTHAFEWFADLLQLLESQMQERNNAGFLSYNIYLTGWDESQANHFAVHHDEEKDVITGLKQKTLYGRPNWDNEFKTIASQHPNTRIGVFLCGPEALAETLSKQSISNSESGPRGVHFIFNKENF
Assay: NOX2-dependent H2O2 signal modulators, primary screen, NOX inhibitor project, cell-based, HEK293-NOX2, PMA-stimulated, Amplex Red fluorescence (AID 1159); note: test concentration not given here
Settings: 45 min, higher = more signal, called active from +8 up or from −8 down
measurement.name: z-score

molecule=COCCCNC(=O)[C@@]1(c2ccc([N+](=O)[O-])cc2)CC(=O)N(C2CCCCC2)[C@@H]1c1ccc(CO)cc1 measurement_name=z-score reading=0.929
molecule="CN(C)c1ccc(C(O)C2C=CC3C(=O)NC(=O)C3N2Nc2ccc(Cl)cc2Cl)cc1 (centres undefined)" measurement_name=z-score reading=-1.15
molecule=C=C(C(=O)CC[C@H](OC(=O)c1ccccc1-c1ccccc1C(=O)O)c1ccc(CO)o1)C(C)C measurement_name=z-score reading=-0.162
molecule=CCC#CCN(Cc1ccccc1Br)[C@H](/C=C/c1ccccc1)[C@@H](O)Cc1ccccc1 measurement_name=z-score reading=-0.267

====

Assay: basal HepG2 mitochondrial membrane potential changes, profiling panel, cell-based, JC-1 fluorescence, 24 h, 100 nL compound (AID 1167); note: test concentration not given here
Details: higher = more signal
# z-score listing for each entry below
measurement.name: z-score

compound=O=C1O[C@@H](c2ccccc2)[C@@H](c2ccccc2)N2[C@@H](c3ccccc3OCCO)[C@]3(C(=O)Nc4ccc(C#CC5=CCCCC5)cc43)[C@@H](C(=O)O)[C@H]12 reading=-3.81
compound="O=C1C2C=CC(C(O)c3ccccc3)N(n3cnnc3)C2C(=O)N1Cc1ccccc1 (centres undefined)" reading=0.323
compound=CCCNC(=O)[C@@]1(Sc2ccc(C)cc2)CC(=O)N(Cc2ccccc2Cl)[C@@H]1c1ccc(CO)cc1 reading=0.00317
compound=CCN1C(C)=C(C(=O)OC)[C@@H](c2ccccc2)N2C(=O)[C@@]3(C(=O)OC)O[C@@]12[C@@H]1C(=O)CCC[C@@H]13 reading=0.638

====

Test: S. cerevisiae growth modulation with rapamycin, primary screen, strain BY4716, OD600, 96 h (AID 1091); note: test concentration not given here
Conditions: higher = more signal, called active from +8 up or from −8 down
measurement.name: z-score

compound="C[C@H]1NC(=O)[C@@H](C)NC(=O)[C@@]23C(=O)N[C@@H](Cc4ccccc4)C2[C@H](C)[C@@]2(C)O[C@H]2C3/C=C/C/C=C\\CNC1=O (some centres undefined)" measurement_name=z-score reading=0.581
compound=CC(=O)Nc1ccc([C@H]2[C@H](C)CC[C@H]3C(=O)N4[C@@H](CC[C@@H](C)[C@@H]4c4ccc(NC(C)=O)cc4)C(=O)N32)cc1 measurement_name=z-score reading=-0.145
compound=O=C1c2ccccc2[C@](Cc2ccccc2I)(C(=O)NCc2ccccc2)[C@H](c2ccc(CO)cc2)N1Cc1ccccc1C(F)(F)F measurement_name=z-score reading=0.304
compound=COC(=O)C(CC#Cc1ccc2c(c1)[C@]1(C(=O)N2)[C@H](C(=O)N2CCCCCCC2)[C@H]2C(=O)O[C@H](c3ccccc3)[C@H](c3ccccc3)N2[C@@H]1c1ccc(O)cc1)C(=O)OC measurement_name=z-score reading=0.702
compound=CO[C@H]1COC(=O)[C@@H](C)COC(=O)[C@H](Cc2ccccc2)NC(=O)CC=C[C@H]1C measurement_name=z-score reading=-0.544
compound=COc1ccc([Si](C)(C)[C@@H]2[C@@H](CCO)O[C@]3(C(=O)N(Cc4ccccc4)c4ccccc43)[C@H]2C)cc1 measurement_name=z-score reading=1.24
compound=CN(C)C(=O)[C@@]1(Cc2ccccc2N=[N+]=[N-])N=C(c2ccc(OCCCO)cc2)O[C@H]1c1ccccc1CN=[N+]=[N-] measurement_name=z-score reading=1.62
compound=C=CC[C@]1(C(=O)N2CCCCC2)N=C(c2ccc(OCCCO)cc2)O[C@H]1c1ccccc1N=[N+]=[N-] measurement_name=z-score reading=0.946
compound=O=[N+]([O-])c1ccc(C[n+]2ccc3ccc(O)cc3c2)o1 measurement_name=z-score reading=-0.5
compound=CCCC=C(CCC)[C@@H](NS(=O)(=O)c1cccc(C(F)(F)F)c1)c1ccc(C(=O)OC)cc1 measurement_name=z-score reading=-0.182
compound=CC(=O)NCCCC[C@@H]1NC(=O)[C@@H]2C[C@H](C(=O)NCc3ccc(F)cc3)[C@H](c3cccc(OCCO)c3)N2C1=O measurement_name=z-score reading=0.205
compound=COCCOC(=O)N1C(=O)[C@@]2(c3cc(C#CCCO)ccc31)[C@H](c1ccc(O)cc1)N1[C@H](c3ccccc3)[C@H](c3ccccc3)OC(=O)[C@H]1[C@@H]2C(=O)Nc1nc2ccccc2s1 measurement_name=z-score reading=0.691
compound="O=C1C2C=CC(C(O)C#Cc3ccccc3)N(Nc3ccccc3)C2C(=O)N1c1ccccc1 (centres undefined)" measurement_name=z-score reading=0.104
compound=C[C@H]1COC(=O)[C@H](Cc2ccccc2)NC(=O)[C@@H](C)COC(=O)[C@H](Cc2ccccc2)NC1=O measurement_name=z-score reading=-0.278

====

Assay: A549 cell viability effects, profiling panel, calcein-AM fluorescence, 48 h, basal (AID 1162); note: test concentration not given here
Conditions: higher = more signal
measurement.name: z-score

compound=COCCOC(=O)N1C(=O)[C@@]2(c3ccccc31)[C@H](C(=O)N1CCc3cc(OC)c(OC)cc3C1)[C@H]1C(=O)O[C@H](c3ccccc3)[C@H](c3ccccc3)N1[C@@H]2c1ccccc1OCCO measurement_name=z-score reading=1.57
compound="Cc1cc(C)c(C(O)C2C=CC3C(=O)N(C)C(=O)C3N2N2CCCCC2)c(C)c1 (stereo not given)" measurement_name=z-score reading=-0.905
compound=CCCCO[C@H]1C[C@H]2C(Br)=C[C@@]1(CO)C(=O)[C@]21CO1 measurement_name=z-score reading=0.491
compound=CCOC(=O)C1=CC[C@@H](c2ccc(-c3ccc(OCc4ccccc4)cc3)c(OC)c2)N(S(=O)(=O)c2ccc(C)cc2)[C@H]1c1ccccc1 measurement_name=z-score reading=-0.603
compound=CCC(=O)[C@]12O[C@@]3([C@@H]4C(=O)OCC[C@@H]41)N(Cc1ccccc1)C(C)=C(C(=O)OC)[C@@H](c1ccccc1)N3C2=O measurement_name=z-score reading=0.997
compound="C=CC[C@]1(C(=O)NCC(O)CO)N=C(c2ccc(OCCCO)cc2)O[C@H]1c1ccccc1 (stereo not given in full)" measurement_name=z-score reading=0.495
compound=CO[C@]12C=C(Br)[C@@H](C[C@@H]1c1ccccc1)[C@@]1(CO1)C2=O measurement_name=z-score reading=-1.08
compound=C[N+](C)(C)CCCC[C@@H]1NC(=O)[C@H]2C[C@@H](C(=O)NCc3ccc(F)cc3)[C@@H](c3cccc(OCCO)c3)N2C1=O measurement_name=z-score reading=0.191
compound=COc1ccc(CCN2C(=O)[C@@]3(c4ccc([N+](=O)[O-])cc4)CC(=O)N(CC45CC6CC(CC(C6)C4)C5)[C@@H]3c3ccc(CO)cc32)cc1 measurement_name=z-score reading=1.44
compound=CCN1C(C)=C(C(=O)OC)[C@@H](c2ccccc2)N2C(=O)[C@@]3(C(=O)OC)O[C@@]12[C@@H]1C(=O)N(C)C(=O)[C@@H]13 measurement_name=z-score reading=0.0516
compound="O=C1NC(=O)C2C1C=CC(C(O)C=Cc1ccc([N+](=O)[O-])cc1)N2Nc1ccccn1 (stereo not given)" measurement_name=z-score reading=0.183
compound=COCCCNC(=O)[C@@]1(Sc2ccc(C)cc2)CC(=O)N(Cc2cc(C(F)(F)F)cc(C(F)(F)F)c2)[C@@H]1c1ccc(CO)cc1I measurement_name=z-score reading=0.697
compound=CO[C@H]1COC(=O)CC=C[C@H](C)[C@@H](OC)COC(=O)CC=C[C@@H]1C measurement_name=z-score reading=1.09
compound=CO[C@@H]1COC(=O)[C@@H]2CCCN2C(=O)CC=C[C@@H](C)[C@H](OC)COC(=O)[C@@H]2CCCN2C(=O)CC=C[C@H]1C measurement_name=z-score reading=0.798
compound=COC(=O)Cn1c(C(=O)N2CCCC2)cc2c1C[C@H]1CN(C(=O)c3ccccc3)[C@@](Cc3ccccc3)(C(=O)OC)[C@@H]21 measurement_name=z-score reading=-0.162

Just for reference, PubChem BioAssay is where these values come from.
